- Target entity: TDP-43 (Homo sapiens, UniProt Q13148 1-414)
- Sequence (Q13148 whole entry): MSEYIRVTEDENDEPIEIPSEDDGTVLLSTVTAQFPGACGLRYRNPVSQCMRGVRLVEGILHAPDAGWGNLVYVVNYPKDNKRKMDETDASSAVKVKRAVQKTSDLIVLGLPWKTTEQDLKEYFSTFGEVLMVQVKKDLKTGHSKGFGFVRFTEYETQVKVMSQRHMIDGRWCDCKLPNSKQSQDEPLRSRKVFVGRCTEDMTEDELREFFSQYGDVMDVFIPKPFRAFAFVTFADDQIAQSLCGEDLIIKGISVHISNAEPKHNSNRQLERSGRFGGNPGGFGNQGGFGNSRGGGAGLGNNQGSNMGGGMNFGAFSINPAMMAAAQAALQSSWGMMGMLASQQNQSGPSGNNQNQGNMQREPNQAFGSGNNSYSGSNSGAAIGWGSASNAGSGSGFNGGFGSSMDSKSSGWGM
- Method description: RNA Bind-n-Seq with designed 260-mer pool; 25 mM Tris-HCl, 150 mM KCl, 3 mM MgCl2, BSA (printed 500 mg/mL), 20 units/mL SUPERase IN; pH not stated; 500 nM RNA pool, 1 h, 4 C; TDP-43 5, 50, 500 nM; high values mean tight binding
- Settings: protein: recombinant; tags: SBP (GST cleaved off with PreScission; pGEX-GST-SBP)
Whole data set: some 9,900 sequences, median “r (bound/input frequency ratio)” near 0.7, cut for the highest 2% near 6.5. Many of the other results were omitted from the sample, so the highest values are more common in it than they were.
Measurement name: binding signal

>>> endpoint_result("ENSMUSG00000032194.156|Kank2|226:232 (ssRNA) RNA: GGGAGUUCUACAGUCCGACGAUCGCUUCGAUAUCCGCAUGCUAAAAAAAGAAAAAAGGCCAUUCCGGAGUGACUCCCAGCAUCACAGCCCAGAACCUCCUCCUCAAAGGAGAGUAAACAGAGACUGUGAUACUGACCAAGUACAGGCGCUCGCUAUGAAGCCCAUAUGUUCCUGAUUAAGAGCUGGCUGGCCUCAGAGCACUCCCAGAACUAGCUUAAAGUGACAGGCUUUGCUGAAAUCCAAAGGGACAAAAGAGUAGUUUUAUGUUACACACAUUGUUUUUAAUGCCCUGGAGCUCCUGCUCUCUUGCGGUCGCACUAGUGUGGAAUUCUCGGGUGUCAAGG")
"0.257 R (bound/input frequency ratio)"
